For each record, write down the corresponding relative viability.
System: NCI-H2228
Procedure Text: relative viability (nuclei count vs DMSO), 5 days (fraction); higher = more cells survive
Recorded Conditions: first compound 0.253 µM
Number only, no unit.

Can you look up the measured relative viability of O=c1[nH]c2ccccc2n1C1CCN(CCCC(c2ccc(F)cc2)c2ccc(F)cc2)CC1 [Pimozide] + CCNC(=O)c1noc(-c2cc(C(C)C)c(O)cc2O)c1-c1ccc(CN2CCOCC2)cc1 [Luminespib] (partner 0.01 µM) for me? 0.149

State the recorded relative viability for this entry: Cc1cnc(-c2cnc(NCCNc3ccc(C#N)cn3)nc2-c2ccc(Cl)cc2Cl)[nH]1 + CC(=O)c1c(C)c2cnc(Nc3ccc(N4CCNCC4)cn3)nc2n(C2CCCC2)c1=O [Palbociclib] (partner 0.5 µM) 0.716

Query (compound): O=c1[nH]c2ccccc2n1C1CCN(CCCC(c2ccc(F)cc2)c2ccc(F)cc2)CC1 [Pimozide] + Nc1nc2[nH]cc(CCc3ccc(C(=O)N[C@@H](CCC(=O)O)C(=O)O)cc3)c2c(=O)[nH]1 [Pemetrexed] (partner 0.2 µM) ; field requested: relative viability 0.369

For the compound O=c1[nH]c2ccccc2n1C1CCN(CCCC(c2ccc(F)cc2)c2ccc(F)cc2)CC1 [Pimozide] + O=C(CCCCCCC(=O)Nc1ccccc1)NO [Vorinostat] (partner 1 µM) , what relative viability is on record? 0.668

I have this compound here, O=c1[nH]c2ccccc2n1C1CCN(CCCC(c2ccc(F)cc2)c2ccc(F)cc2)CC1 [Pimozide] + CC(C)C[C@H](NC(=O)[C@H](Cc1ccccc1)NC(=O)c1cnccn1)B(O)O [Bortezomib] (partner 0.002 µM) , and I need its recorded relative viability. 0.858

So what's the measured relative viability for this one? O=c1[nH]c2ccccc2n1C1CCN(CCCC(c2ccc(F)cc2)c2ccc(F)cc2)CC1 [Pimozide] + N=C(N)NC(=N)NCCc1ccccc1 [Phenformin] (partner 250 µM) 0.293

Look up relative viability: Cc1cnc(-c2cnc(NCCNc3ccc(C#N)cn3)nc2-c2ccc(Cl)cc2Cl)[nH]1 + O=C(c1cc(Cc2n[nH]c(=O)c3ccccc23)ccc1F)N1CCN(C(=O)C2CC2)CC1 [Olaparib] (partner 8 µM) 0.332

Requested field: relative viability. Item: Cc1cnc(-c2cnc(NCCNc3ccc(C#N)cn3)nc2-c2ccc(Cl)cc2Cl)[nH]1 + CC1(C)CCC(c2ccc(Cl)cc2)=C(CN2CCN(c3ccc(C(=O)NS(=O)(=O)c4ccc(N[C@H](CCN5CCOCC5)CSc5ccccc5)c(S(=O)(=O)C(F)(F)F)c4)cc3)CC2)C1 [Navitoclax] (partner 0.5 µM) 1.14

Give the measured relative viability of O=c1[nH]c2ccccc2n1C1CCN(CCCC(c2ccc(F)cc2)c2ccc(F)cc2)CC1 [Pimozide] + Cc1cc(Nc2cc(N3CCN(C)CC3)nc(Sc3ccc(NC(=O)C4CC4)cc3)n2)n[nH]1 [Tozasertib] (partner 0.1 µM) . 0.262

Any idea what relative viability was measured for O=c1[nH]c2ccccc2n1C1CCN(CCCC(c2ccc(F)cc2)c2ccc(F)cc2)CC1 [Pimozide] + CS(=O)(=O)CCNCc1ccc(-c2ccc3ncnc(Nc4ccc(OCc5cccc(F)c5)c(Cl)c4)c3c2)o1 [Lapatinib] (partner 2 µM) ? 1.2

Which relative viability is listed for O=c1[nH]c2ccccc2n1C1CCN(CCCC(c2ccc(F)cc2)c2ccc(F)cc2)CC1 [Pimozide] + CC(=O)Nc1cccc(-n2c(=O)n(C3CC3)c(=O)c3c(Nc4ccc(I)cc4F)n(C)c(=O)c(C)c32)c1 [Trametinib] (partner 0.02 µM) ? 0.475

Param item = Cc1cnc(-c2cnc(NCCNc3ccc(C#N)cn3)nc2-c2ccc(Cl)cc2Cl)[nH]1 + Cc1cc(Nc2cc(N3CCN(C)CC3)nc(Sc3ccc(NC(=O)C4CC4)cc3)n2)n[nH]1 [Tozasertib] (partner 0.1 µM) ; retrieve measured relative viability. 0.267

Item under review: Cc1cnc(-c2cnc(NCCNc3ccc(C#N)cn3)nc2-c2ccc(Cl)cc2Cl)[nH]1 + CC(C)C[C@H](NC(=O)[C@H](Cc1ccccc1)NC(=O)c1cnccn1)B(O)O [Bortezomib] (partner 0.002 µM) . Reported relative viability? 0.879

Data provenance: the supplement of paper PMC10307832
